# Tested on: Staphylococcus aureus
# assay.remarks: Bactericidal activity against Staphylococcus aureus ATCC 25923 incubated for 18 hrs by broth microdilution method
# Format: functional
quantity.name: MBC (µM)
Give just the number in µM; leave the unit off.

1. NCCCC[C@@H](NC(=O)[C@H](N)Cc1c[nH]c2ccccc12)C(=O)N[C@H](Cc1c[nH]c2ccccc12)C(=O)N[C@H](CCCCN)C(=O)N[C@H](Cc1c[nH]c2ccccc12)C(=O)NCC(=O)NCC(=O)N[C@H](Cc1c[nH]c2ccccc12)C(=O)N[C@H](CCCCN)C(=O)N[C@H](Cc1c[nH]c2ccccc12)C(=O)N[C@H](CCCCN)C(=O)N[C@H](Cc1c[nH]c2ccccc12)C(N)=O    4
2. NCCCC[C@@H](NC(=O)[C@H](N)Cc1c[nH]c2ccccc12)C(=O)N[C@H](Cc1c[nH]c2ccccc12)C(=O)N[C@H](CCCCN)C(=O)N[C@H](Cc1c[nH]c2ccccc12)C(=O)N1CCC[C@H]1C(=O)NCC(=O)N[C@H](Cc1c[nH]c2ccccc12)C(=O)N[C@H](CCCCN)C(=O)N[C@H](Cc1c[nH]c2ccccc12)C(=O)N[C@H](CCCCN)C(=O)N[C@H](Cc1c[nH]c2ccccc12)C(N)=O    8
3. NCCCC[C@@H](NC(=O)[C@H](N)Cc1c[nH]c2ccccc12)C(=O)N[C@H](Cc1c[nH]c2ccccc12)C(=O)N[C@H](CCCCN)C(=O)N[C@H](Cc1c[nH]c2ccccc12)C(=O)N1CCC[C@@H]1C(=O)NCC(=O)N[C@H](Cc1c[nH]c2ccccc12)C(=O)N[C@H](CCCCN)C(=O)N[C@H](Cc1c[nH]c2ccccc12)C(=O)N[C@H](CCCCN)C(=O)N[C@H](Cc1c[nH]c2ccccc12)C(N)=O    8
4. NCCCC[C@@H](NC(=O)[C@H](N)Cc1c[nH]c2ccccc12)C(=O)N[C@H](Cc1c[nH]c2ccccc12)C(=O)N[C@H](CCCCN)C(=O)N[C@H](Cc1c[nH]c2ccccc12)C(=O)N1CCC[C@@H]1C(=O)N1CCC[C@H]1C(=O)N[C@H](Cc1c[nH]c2ccccc12)C(=O)N[C@H](CCCCN)C(=O)N[C@H](Cc1c[nH]c2ccccc12)C(=O)N[C@H](CCCCN)C(=O)N[C@H](Cc1c[nH]c2ccccc12)C(N)=O    8
5. NCCCC[C@@H](N)C(=O)N[C@H](Cc1c[nH]c2ccccc12)C(=O)N[C@H](CCCCN)C(=O)N[C@H](Cc1c[nH]c2ccccc12)C(=O)N[C@H](CCCCN)C(=O)N1CCC[C@@H]1C(=O)N1CCC[C@H]1C(=O)N[C@H](CCCCN)C(=O)N[C@H](Cc1c[nH]c2ccccc12)C(=O)N[C@H](CCCCN)C(=O)N[C@H](Cc1c[nH]c2ccccc12)C(=O)N[C@H](CCCCN)C(N)=O    64
6. NCCCC[C@@H](N)C(=O)N[C@H](Cc1c[nH]c2ccccc12)C(=O)N[C@H](CCCCN)C(=O)N[C@H](Cc1c[nH]c2ccccc12)C(=O)N[C@H](CCCCN)C(=O)N1CCC[C@H]1C(=O)NCC(=O)N[C@H](CCCCN)C(=O)N[C@H](Cc1c[nH]c2ccccc12)C(=O)N[C@H](CCCCN)C(=O)N[C@H](Cc1c[nH]c2ccccc12)C(=O)N[C@H](CCCCN)C(N)=O    32
7. NCCCC[C@@H](N)C(=O)N[C@H](Cc1c[nH]c2ccccc12)C(=O)N[C@H](CCCCN)C(=O)N[C@H](Cc1c[nH]c2ccccc12)C(=O)N[C@H](CCCCN)C(=O)N1CCC[C@@H]1C(=O)NCC(=O)N[C@H](CCCCN)C(=O)N[C@H](Cc1c[nH]c2ccccc12)C(=O)N[C@H](CCCCN)C(=O)N[C@H](Cc1c[nH]c2ccccc12)C(=O)N[C@H](CCCCN)C(N)=O    32

# context switch: different compound, same MBC
The reported value for NCCCC[C@@H](N)C(=O)N[C@H](Cc1c[nH]c2ccccc12)C(=O)N[C@H](CCCCN)C(=O)N[C@H](Cc1c[nH]c2ccccc12)C(=O)N[C@H](CCCCN)C(=O)N[C@@H](CC(N)=O)C(=O)NCC(=O)N[C@H](CCCCN)C(=O)N[C@H](Cc1c[nH]c2ccccc12)C(=O)N[C@H](CCCCN)C(=O)N[C@H](Cc1c[nH]c2ccccc12)C(=O)N[C@H](CCCCN)C(N)=O in terms of MBC is 64
